Tested on: Wnt activity (Sp5-Luc reporter, SW480 colon carcinoma cells)
method.summary: Screening assay for Wnt activity: Sp5-Luc reporter gene assay in SW480 cells
Assay type: cell-based
conditions.used: Homo sapiens, overnight incubation, 10-point dose-response from 10 μM
Protocol: The screening assay for Wnt activity is described as follows. […] SW480 colon carcinoma cells were transduced with a lentiviral vector expressing luciferase with a human Sp5 promoter consisting of a sequence of eight TCF/LEF binding sites. […] Following incubation, 20 μl of BrightGlo luminescence reagent (Promega) was added to each well of the 384-well assay plates. The plates were placed on an orbital shaker for 2 min and then luminescence was quantified using the Envision (Perkin Elmer) plate reader. […]
readout.name: EC50

Query `c1ccc(-c2ccc3[nH]nc(-c4nc5cccnc5[nH]4)c3n2)nc1` yields EC50 of 0.687 µM

Query `O=C(Nc1cncc(-c2ccc3[nH]nc(-c4nc5c(-c6ccc(F)cc6)ccnc5[nH]4)c3n2)c1)C1CCC1` yields EC50 of 0.908 µM

Query `O=C(CC1CCNCC1)Nc1cncc(-c2ccc3[nH]nc(-c4nc5c(-c6ccccn6)ccnc5[nH]4)c3n2)c1` yields EC50 of > 10 µM

Query `Cc1cn(-c2ccnc3[nH]c(-c4n[nH]c5ccc(-c6cncc(NC(=O)C(C)(C)C)c6)nc45)nc23)cn1` yields EC50 of > 10 µM

Query `CN1CCN(c2ccnc3[nH]c(-c4n[nH]c5ccc(-c6cncc(OC7CCCCC7)c6)nc45)nc23)CC1` yields EC50 of 4.06 µM

Query `Nc1cncc(-c2ccc3[nH]nc(-c4nc5c(-c6ccccc6F)ccnc5[nH]4)c3n2)c1` yields EC50 of > 10 µM

Query `CC(C)(C)CC(=O)Nc1cncc(-c2ccc3[nH]nc(-c4nc5cccnc5[nH]4)c3n2)c1` yields EC50 of > 10 µM

Query `Cn1cc(-c2ccc3[nH]nc(-c4nc5c(-c6ccc7c(c6)OCO7)ccnc5[nH]4)c3n2)c(CO)n1` yields EC50 of > 10 µM

Query `Oc1cncc(-c2ccc3[nH]nc(-c4nc5c(-c6cccc(F)c6)ccnc5[nH]4)c3n2)c1` yields EC50 of 0.423 µM

Query `FC1(F)CCN(Cc2cncc(-c3ccc4[nH]nc(-c5nc6c(-c7ccsc7)ccnc6[nH]5)c4n3)c2)C1` yields EC50 of 0.533 µM

Query `Fc1cccc(-c2ccnc3[nH]c(-c4n[nH]c5ccc(C6CCNCC6)nc45)nc23)c1` yields EC50 of > 10 µM

Query `CCCCC(=O)Nc1cncc(-c2ccc3[nH]nc(-c4nc5c(-c6ccccn6)ccnc5[nH]4)c3n2)c1` yields EC50 of > 10 µM

Query `CCC(=O)Nc1cncc(-c2ccc3[nH]nc(-c4nc5c(N6CCCCC6)ccnc5[nH]4)c3n2)c1` yields EC50 of > 10 µM

Query `Fc1cccc(-c2ccnc3[nH]c(-c4n[nH]c5ccc(-c6cncc(CN7CCC(F)(F)C7)c6)nc45)nc23)c1` yields EC50 of 0.885 µM

Query `CC(C)C(=O)Nc1cncc(-c2ccc3[nH]nc(-c4nc5c(-c6ccccc6F)ccnc5[nH]4)c3n2)c1` yields EC50 of > 10 µM

Query `CCCC(=O)Nc1cncc(-c2ccc3[nH]nc(-c4nc5c(-c6cc(F)cc(CNS(C)(=O)=O)c6)ccnc5[nH]4)c3n2)c1` yields EC50 of > 10 µM

Query `COc1cccc(-c2ccnc3[nH]c(-c4n[nH]c5ccc(-c6cncc(O)c6)nc45)nc23)c1` yields EC50 of > 10 µM

Query `CN(C)CCOc1cncc(-c2ccc3[nH]nc(-c4nc5c(-c6cccs6)ccnc5[nH]4)c3n2)c1` yields EC50 of 3.57 µM

Query `CN(C)c1cncc(-c2ccc3[nH]nc(-c4nc5c(-c6cccs6)ccnc5[nH]4)c3n2)c1` yields EC50 of > 10 µM

Query `Fc1cccc(-c2ccnc3[nH]c(-c4n[nH]c5ccc(-c6cn[nH]c6)nc45)nc23)c1` yields EC50 of > 10 µM

----------
Tested on: IL-6 (THP-1 cells)
method.summary: Inhibition of IL-6 in LPS-stimulated THP-1 monocytes (HTRF)
Type: cell-based
conditions.used: Homo sapiens, LPS 500 ng/mL, IL-6 by HTRF
pEC50: −log10 of the molar value.
readout.name: pEC50

Reading of pEC50 for `CC(C)(C)CC(=O)Nc1cncc(-c2ccc3[nH]nc(-c4nc5c(-c6ccccc6F)ccnc5[nH]4)c3n2)c1` with IL-6 (THP-1 cells): < 5.00

Reading of pEC50 for `CN1CCN(c2ccnc3[nH]c(-c4n[nH]c5ccc(-c6cncc(NC(=O)C7CCCC7)c6)nc45)nc23)CC1` with IL-6 (THP-1 cells): < 5.00

Reading of pEC50 for `COc1cccc(-c2ccnc3[nH]c(-c4n[nH]c5ccc(-c6cncc(NC(=O)C7CCCCC7)c6)nc45)nc23)c1` with IL-6 (THP-1 cells): < 5.00

Reading of pEC50 for `CN(C)c1cncc(-c2ccc3[nH]nc(-c4nc5c(-c6cccc(F)c6)ccnc5[nH]4)c3n2)c1` with IL-6 (THP-1 cells): 5.13

Reading of pEC50 for `CN(C)CCNc1cc(F)cc(-c2ccnc3[nH]c(-c4n[nH]c5ccc(-c6cncc(OCCN7CCCC7)c6)nc45)nc23)c1` with IL-6 (THP-1 cells): < 5.00

Reading of pEC50 for `c1cncc(-c2ccc3[nH]nc(-c4nc5c(-c6cccnc6)ccnc5[nH]4)c3n2)c1` with IL-6 (THP-1 cells): < 5.00

Reading of pEC50 for `Cc1cn(-c2ccnc3[nH]c(-c4n[nH]c5ccc(-c6cncc(CN7CCCC7)c6)nc45)nc23)cn1` with IL-6 (THP-1 cells): < 5.00

Reading of pEC50 for `Cc1cn(-c2ccnc3[nH]c(-c4n[nH]c5ccc(-c6cncc(OCCN(C)C)c6)nc45)nc23)cn1` with IL-6 (THP-1 cells): 6.39

Reading of pEC50 for `CCCCC(=O)Nc1cncc(-c2ccc3[nH]nc(-c4nc5c(-c6cc(F)cc(NCCN(C)C)c6)ccnc5[nH]4)c3n2)c1` with IL-6 (THP-1 cells): < 5.00

Reading of pEC50 for `CCC(=O)Nc1cncc(-c2ccc3[nH]nc(-c4nc5c(-c6ccsc6)ccnc5[nH]4)c3n2)c1` with IL-6 (THP-1 cells): < 5.00

Reading of pEC50 for `Cc1ccncc1-c1ccc2[nH]nc(-c3nc4c(-c5ccncc5)ccnc4[nH]3)c2n1` with IL-6 (THP-1 cells): < 5.00

Reading of pEC50 for `Fc1ccccc1-c1ccnc2[nH]c(-c3n[nH]c4ccc(-c5ccccn5)nc34)nc12` with IL-6 (THP-1 cells): < 5.00

Reading of pEC50 for `c1cc(-c2ccoc2)c2nc(-c3n[nH]c4ccc(-c5cncc(CNCC6CCCC6)c5)nc34)[nH]c2n1` with IL-6 (THP-1 cells): 5.58

----------
Tested on: primary human fibroblasts derived from IPF patients (LL29 cells), α-smooth muscle actin (αSMA)
method.summary: Inhibition of the fibrotic process: TGF-β1-treated primary human fibroblasts from IPF patients, αSMA staining
Assay type: cell-based
conditions.used: Fibroblast, 96 h, LL29 fibroblasts from IPF patients, TGF-β1 20 ng/mL, 4 days, inhibition of fibrotic process
pEC50: −log10 of the molar value.
Mark Criterion met for reported pEC50 of 6 or greater; mark Criterion not met for anything smaller.

# bool: pEC50 of `Fc1cccc(-c2ccnc3[nH]c(-c4n[nH]c5ccc(C6=CCNCC6)nc45)nc23)c1` >= 6 Criterion not met

# bool: pEC50 of `Fc1cccc(-c2ccnc3[nH]c(-c4n[nH]c5ccc(-c6ccncc6)nc45)nc23)c1` >= 6 Criterion not met

# bool: pEC50 of `c1cc(-c2ccc3[nH]nc(-c4nc5c(-c6ccncc6)ccnc5[nH]4)c3n2)ccn1` >= 6 Criterion not met

# bool: pEC50 of `CCCCC(=O)Nc1cncc(-c2ccc3[nH]nc(-c4nc5c(-c6cc(F)cc(NCCN(C)C)c6)ccnc5[nH]4)c3n2)c1` >= 6 Criterion not met

# bool: pEC50 of `FC1(F)CCN(Cc2cncc(-c3ccc4[nH]nc(-c5nc6c(-c7ccsc7)ccnc6[nH]5)c4n3)c2)C1` >= 6 Criterion met

# bool: pEC50 of `O=C(Nc1cncc(-c2ccc3[nH]nc(-c4nc5c(-c6ccc(Cl)s6)ccnc5[nH]4)c3n2)c1)C1CCC1` >= 6 Criterion met

# bool: pEC50 of `Cc1cn(-c2ccnc3[nH]c(-c4n[nH]c5ccc(C6=CCNCC6)nc45)nc23)cn1` >= 6 Criterion not met

# bool: pEC50 of `CCNCc1cncc(-c2ccc3[nH]nc(-c4nc5c(-c6cc(F)cc(NCCN(C)C)c6)ccnc5[nH]4)c3n2)c1` >= 6 Criterion not met

# bool: pEC50 of `CC(C)Nc1cncc(-c2ccc3[nH]nc(-c4nc5c(-c6cc(F)cc(NCCN(C)C)c6)ccnc5[nH]4)c3n2)c1` >= 6 Criterion not met

// data source = patent US10329309B2
